Biological target: TDO (Homo sapiens)
Sequence (P48775 whole entry): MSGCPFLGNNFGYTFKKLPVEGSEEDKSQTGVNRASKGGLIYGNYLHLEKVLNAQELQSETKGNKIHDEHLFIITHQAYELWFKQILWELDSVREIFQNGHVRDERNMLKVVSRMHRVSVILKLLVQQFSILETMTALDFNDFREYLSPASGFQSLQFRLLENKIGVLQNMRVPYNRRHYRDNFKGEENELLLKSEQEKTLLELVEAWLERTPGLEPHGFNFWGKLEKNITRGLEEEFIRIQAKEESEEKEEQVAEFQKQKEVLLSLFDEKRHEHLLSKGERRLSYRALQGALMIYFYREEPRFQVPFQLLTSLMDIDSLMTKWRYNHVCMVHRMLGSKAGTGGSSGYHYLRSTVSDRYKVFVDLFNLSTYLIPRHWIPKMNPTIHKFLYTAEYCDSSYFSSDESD
Test: hTDO biochemical coupled assay
Conditions: 330 μM L-tryptophan, 17 minutes, room temperature; read-out: hTDO biochemical assay pIC50 (converted)
Property: IC50

Below are worked cases with known answers.
CC(C)N1C(=O)NC2(CCN(c3cc(Cl)cc4[nH]ncc34)CC2)C1=O; < 3.16 µM
CC(=O)N1CCN(c2cccc3[nH]ncc23)CC1; 32.4 to 100 µM

Lookup: Identify measured IC50 associated with NC(=O)C1CCCN(c2cc(Cl)cc3[nH]ncc23)C1 (stereo not drawn)
Found: < 3.16 µM

Lookup: Specify reported IC50 for the molecule shown: `CC(C)Cn1cc(-c2cc(Cl)cc3[nH]ncc23)cn1`
Found: 3.24 to 31.6 µM

Lookup: Consider the molecule `CS(=O)(=O)c1ccc(-c2cc(Cl)cc3[nH]ncc23)cc1Cl` and give its recorded IC50.
Found: < 3.16 µM

Lookup: Give me measured IC50, please, for this molecule: `CC(=O)NCCN1CCN(c2cc(Cl)cc3[nH]ncc23)CC1`
Found: < 3.16 µM

Lookup: Look up and state reported IC50 for `CC(=O)Nc1cc(N2CCN(S(C)(=O)=O)C(C)(C)C2)c2cn[nH]c2c1`
Found: > 100 µM

Lookup: Query IC50 for `Cn1ccnc1CN1C(=O)NC2(CCN(c3cc(Cl)cc4[nH]ncc34)CC2)C1=O`
Found: < 3.16 µM

Lookup: Fill in reported IC50 for this entry: `CC1(C)CN(c2cc(C#N)cc3[nH]ncc23)CCN1S(C)(=O)=O`
Found: < 3.16 µM

---

Target: UniProt P48775
Experiment: A172 kynurenine cell-based assay
Parameters: This assay utilised cancer cells which expressed either TDO or IDO; endogenous in cells; host or cells: A172 (human glioblastoma)
Details: A172 human glioblastoma cells, 48 hours, 500 μM L-tryptophan; read-out: A172 Kynurenine cell based assay pIC50 (converted)
Property: IC50

CN1C(=O)NC2(CCN(c3cc(Cl)cc4[nH]ncc34)CC2)C1=O; < 3.16 µM

Lookup: Determine its reported IC50: `Clc1cc(N2CCC(c3ncco3)CC2)c2cn[nH]c2c1`
Found: < 3.16 µM

Lookup: For the compound CS(=O)(=O)N1CCC(C(O)c2cc(Cl)cc3[nH]ncc23)CC1 (centres unmarked) , give its measured IC50 value.
Found: 3.24 to 31.6 µM

Lookup: Kindly indicate its recorded IC50. Item: `CC(=O)NCCN1CCN(c2cc(Cl)cc3[nH]ncc23)CC1`
Found: < 3.16 µM

---

Molecular target: TDO (Homo sapiens)
Assay: hTDO biochemical coupled assay
Conditions: 330 μM L-tryptophan, 17 minutes, room temperature; read-out: hTDO biochemical assay pIC50 (converted)
Property: IC50

NS(=O)(=O)c1ccc(-c2cc(Cl)cc3[nH]ncc23)cc1; < 3.16 µM
CS(=O)(=O)c1ccc(-c2cc(Cl)cc3[nH]ncc23)cc1; < 3.16 µM
Cn1ncc2c1CN(c1cc(Cl)cc3[nH]ncc13)CC2; < 3.16 µM

Lookup: Please tell me the measured IC50 for `CS(=O)(=O)c1ccc(Oc2cc(Cl)cc3[nH]ncc23)cc1` ; system: TDO (Homo sapiens).
Found: 3.24 to 31.6 µM

Lookup: Report IC50 from TDO (Homo sapiens) testing of `O=C1NCNC12CCN(c1cc(Cl)cc3[nH]ncc13)CC2`
Found: < 3.16 µM

Lookup: State measured IC50 of the molecule CN1C(=O)NC(C2CCN(c3cc(Cl)cc4[nH]ncc34)CC2)C1=O (centres unmarked) with TDO (Homo sapiens).
Found: < 3.16 µM

Lookup: Give IC50 only, for `CC(=O)NC1CCN(c2cc(Cl)cc3[nH]ncc23)CC1` , using TDO (Homo sapiens) data.
Found: < 3.16 µM

Lookup: Provide IC50, recorded with TDO (Homo sapiens), of `O=C1N[C@H]2CC[C@@H]1CN(c1cc(Br)cc3[nH]ncc13)C2`
Found: < 3.16 µM

Lookup: // fetch IC50 for `CC(=O)N(C)C1CCN(c2cc(Cl)cc3[nH]ncc23)CC1` ; system: TDO (Homo sapiens)
Found: < 3.16 µM

Lookup: Using TDO (Homo sapiens) as the test system, report measured IC50 of `CC(=O)N1CC2(C1)CN(c1cc(Cl)cc3[nH]ncc13)C2` .
Found: < 3.16 µM

Lookup: Find IC50 for `O=C1Nc2ccccc2C12CCN(c1cc(Cl)cc3[nH]ncc13)CC2` on TDO (Homo sapiens) and write it down.
Found: < 3.16 µM

Lookup: Please report the measured IC50 for `CC1(C)CN(c2cc(Cl)cc3[nH]ncc23)CCN1S(C)(=O)=O` tested on TDO (Homo sapiens).
Found: < 3.16 µM

Lookup: Provide the reported IC50 (system: TDO (Homo sapiens)) for `CC(=O)Nc1ccc2c(c1)CCN(c1cc(Cl)cc3[nH]ncc13)C2`
Found: < 3.16 µM

Lookup: Report its IC50 with TDO (Homo sapiens) as the test system: `CC1(C)CN(c2cccc3[nH]ncc23)CCN1S(C)(=O)=O`
Found: < 3.16 µM

Hey, just so you know, these numbers are from patent US10590086B2.
